- target of assay: T1, mouse vascular endothelial growth factor receptor-2 Fc chimera (Flk-1-Fc) (mouse, UniProt P35918 20-762)
- T1 construct: Bought from R&D Systems; also called mouse VEGFR-2; not shown: Fc part of the purchased chimera, not specified
- T1 sequence (P35918 20-762, change not shown): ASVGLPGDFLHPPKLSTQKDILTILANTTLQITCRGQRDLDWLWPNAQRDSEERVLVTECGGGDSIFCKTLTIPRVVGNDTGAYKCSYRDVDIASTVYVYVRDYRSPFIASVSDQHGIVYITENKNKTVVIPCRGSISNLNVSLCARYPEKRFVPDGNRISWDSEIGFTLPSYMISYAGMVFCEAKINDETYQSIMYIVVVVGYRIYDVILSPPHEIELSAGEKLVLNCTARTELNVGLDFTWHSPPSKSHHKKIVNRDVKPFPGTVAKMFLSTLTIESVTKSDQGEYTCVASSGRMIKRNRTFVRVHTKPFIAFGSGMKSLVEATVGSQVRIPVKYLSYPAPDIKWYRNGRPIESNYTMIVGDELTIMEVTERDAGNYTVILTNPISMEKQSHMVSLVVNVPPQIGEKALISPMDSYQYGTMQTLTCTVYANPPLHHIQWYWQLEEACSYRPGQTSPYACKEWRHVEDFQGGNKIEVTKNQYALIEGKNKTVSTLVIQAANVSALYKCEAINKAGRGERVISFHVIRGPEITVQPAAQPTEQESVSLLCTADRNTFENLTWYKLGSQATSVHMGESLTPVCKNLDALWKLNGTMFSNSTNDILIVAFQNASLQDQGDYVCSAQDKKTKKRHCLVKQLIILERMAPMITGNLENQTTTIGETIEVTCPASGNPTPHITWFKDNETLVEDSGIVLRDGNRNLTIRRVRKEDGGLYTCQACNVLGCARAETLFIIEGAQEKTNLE
- test protocol: radioactive equilibrium binding assay, 1 nM Flk-1-Fc, % of input bound
Threshold rule: Binding to 1 nM Flk-1, % greater than or equal to 20% is T; below that, F.

binder: C6 (designed binder, 10Fn3 clone, Del 1-8) EVVAATPTSLLISWRHPHFPTRYYRITYGETGGNSPVQEFTVPLQPPTATISGLKPGVDYTITGYAVTLERNGRVLMTPISINYRT
discrete label: T
//
binder: B5 (designed binder, 10Fn3 clone, Del 1-8) EVVAATPTSLLISWRHPHFPTRYYRITYGETGGNSPVQEFTVPLQPPTATISGLKPGVDYTITGYAVTQERNGRELMTPISINYRT
discrete label: T
//
binder: F1 (designed binder, 10Fn3 clone, Del 1-8) EVVAATPTSLLISWRHPHFPTRYYRITYGETGGNSPVQEFTVPLQPPTATISGLKPGVDYTITGYAVTSGRNDRELLVPISINYRT
discrete label: F
//
binder: EGE2 (designed binder, 10Fn3 clone, Del 1-8) EVVAATPTSLLISWRHPHFPTRYYRITYGETGGNSPVQEFTVPLQPPTATISGLKPGVDYTITGYAVTVERNGRQLMTPISINYRT
discrete label: T

Next item in the queue.
Does Binding to 1 nM Flk-1, % meet or surpass 20% for D1 (designed binder, 10Fn3 clone, Del 1-8) EVVAATPTSLLISWRHPHFPTRYYRITYGETGGNSPVQEFTVPLQPPTATISGLKPGVDYTITGYAVTVERNGRMLMTPISINYRT ?
T
